- Tested on: NCI-H292 lung cancer cells
- assay_procedure: FDA drug screening, complete media vs cholesterol-free media with simvastatin (TABLE 2)
- Format: cell-based, human
- condition_context: NCI-H292 cells, FDA drug library screen, cholesterol-free media with simvastatin 0.04 μM
Entries and their Cholesterol-free media + simvastatin (0.04 μM) values follow.
result_type: Cholesterol-free media + simvastatin (0.04 μM)

INSERT INTO assay_data (molecule, value_reported) VALUES
  ('CCCCc1oc2ccc(NS(C)(=O)=O)cc2c1C(=O)c1ccc(OCCCN(CCCC)CCCC)cc1', 0.4908),
  ('O=C1O[C@H](CO)[C@@H](O)[C@H](O)[C@H]1O [D-(+)-Glucono-1,5-lactone]', 1.196),
  ('CO[C@@H]1[C@@H](OC(N)=O)[C@@H](O)[C@H](Oc2ccc3c(O)c(NC(=O)c4ccc(O)c(CC=C(C)C)c4)c(=O)oc3c2C)OC1(C)C [Novobiocin (Sodium)]', 1.139),
  ('C[C@H]1[C@H](OC(=O)CCC(=O)O)O[C@@H]2O[C@@]3(C)CC[C@H]4[C@H](C)CC[C@@H]1[C@@]24OO3 [Artesunate]', 1.06),
  ('CC[C@H]1OC(=O)[C@H](C)[C@@H](O[C@H]2C[C@@](C)(OC)[C@@H](O)[C@H](C)O2)[C@H](C)[C@@H](O[C@@H]2O[C@H](C)C[C@H](N(C)C)[C@H]2O)[C@](C)(O)C[C@@H](C)C(=O)[C@H](C)[C@H]2OC(=O)O[C@@]21C', 1.064),
  ('Cc1ccccc1N1C(=O)c2cc(S(N)(=O)=O)c(Cl)cc2NC1C (stereo not drawn)', 1.129);

---

- Tested on: NCI-H292 lung cancer cells
- assay_procedure: FDA drug screening, complete media vs cholesterol-free media without statin (TABLE 1)
- Type: cell-based, human
- condition_context: NCI-H292 cells, cholesterol-free media without statin, FDA drug library screen
Where a name gives a salt, the structure may show the parent alone.
Consider the cut-off 0.8. If the recorded Cholesterol-free is strictly smaller, the label is y; if not, the label is n.

INSERT INTO results (compound, label_value) VALUES
  ('O=C([O-])CCCc1ccccc1.[Na+] [Sodium 4-phenylbutyrate]', 'y'),
  ('NC(=O)N1c2ccccc2CC(=O)c2ccccc21 [Oxcarbazepine]', 'n'),
  ('COc1cc(Nc2c(C#N)cnc3cc(OCCCN4CCN(C)CC4)c(OC)cc23)c(Cl)cc1Cl', 'y'),
  ('CN1CCC(=C2c3ccccc3C=Cc3ccccc32)CC1 [Cyproheptadine (hydrochloride)]', 'n'),
  ('COc1ccc(C(=O)NCc2ccc(OCCN(C)C)cc2)cc1OC [Itopride (hydrochloride)]', 'n');

---

- Tested on: NCI-H292 lung cancer cells
- assay_procedure: FDA drug screening, complete media vs cholesterol-free media without statin (TABLE 1)
- Assay type: cell-based, human
- condition_context: complete vs cholesterol-free media; greater than 0 enhanced anti-cancer activity, about 0 neutral, below 0 antagonists
Entries and their Difference values follow.
result_type: Difference

INSERT INTO measurements (molecule, result_type, value_reported) VALUES
  ('CC1(C)O[C@@H]2[C@@H](CO[C@@]3(COS(N)(=O)=O)OC(C)(C)O[C@@H]23)O1 [Topiramate]', 'Difference', '−0.43'),
  ('CCC(c1ccccc1)c1c(O)c2ccccc2oc1=O (stereo not shown) [Phenprocoumon]', 'Difference', '−0.44'),
  ('O=C(O)C(c1ccccc1)(c1ccccc1)c1ccccc1.OCc1cc([C@@H](O)CNCCCCCCOCCOCc2c(Cl)cccc2Cl)ccc1O [Vilanterol (trifenatate)]', 'Difference', '−0.41'),
  ('O=c1cc(-c2ccccc2)oc2cc(O)c(O)c(O)c12 [Baicalein]', 'Difference', '−0.33');

---

- System: NCI-H292 lung cancer cells
- assay_procedure: FDA drug screening, complete media vs cholesterol-free media with simvastatin (TABLE 2)
- Assay type: cell-based, human
- condition_context: NCI-H292 cells, cholesterol-free media with simvastatin 0.04 μM; FDA drug library screen (TABLE 2)
Counter-ions that a name gives are not always drawn.
result_type: Cholesterol-free media + simvastatin (0.04 μM)

INSERT INTO measurements (compound, value_reported) VALUES
  ('CC(C)C[C@H](NC(=O)[C@H](Cc1ccccc1)NC(=O)c1cnccn1)B(O)O [Bortezomib]', 0.003233),
  ('CC(=O)O[C@]1(C(C)=O)CC[C@H]2[C@@H]3CCC4=CC(=O)CCC4=C3[C@@H](c3ccc(N(C)C)cc3)C[C@@]21C [Ulipristal acetate]', 0.6984),
  ('Cc1oncc1C(=O)Nc1ccc(C(F)(F)F)cc1 [Leflunomide]', 0.9978),
  ('COc1cc2c(cc1OC)-c1cc3ccc(OC)c(OC)c3c[n+]1CC2.[Cl-] [Palmatine (chloride)]', 0.706),
  ('CCCCCCCCCCCC(=O)OCN1C(=O)CCc2ccc(OCCCCN3CCN(c4cccc(Cl)c4Cl)CC3)cc21 [Aripiprazole Lauroxil]', 0.9724),
  ('Cc1cccc(N2CC(CO)OC2=O)c1 (stereo not shown) [Toloxatone]', 1.023),
  ('COc1ccc2c3c1O[C@H]1C[C@@H](O)C=C[C@@]31CCN(C)C2 [Galanthamine]', 1.051),
  ('COc1ccc(C(=O)N2CCN(c3ccc4c(c3)CCC(=O)N4)CC2)cc1OC [Vesnarinone]', 0.9506),
  ('CC(C)(C)OC(=O)N[C@H]1CCCCC/C=C\[C@@H]2C[C@@]2(C(=O)NS(=O)(=O)C2CC2)NC(=O)[C@@H]2C[C@@H](OC(=O)N3Cc4cccc(F)c4C3)CN2C1=O [Danoprevir]', 0.8835),
  ('CC(C)(C#N)c1cc(Cn2cncn2)cc(C(C)(C)C#N)c1 [Anastrozole]', 1.07),
  ('O=C(O)CCC(=O)O [Succinic acid]', 1.729),
  ('Cn1c(=O)c2c(ncn2CC(=O)O)n(C)c1=O [Acefylline]', 1.078),
  ('C#C[C@]1(O)CC[C@H]2[C@@H]3CCc4cc(OC5CCCC5)ccc4[C@H]3CC[C@@]21C [Quinestrol]', 0.01915),
  ('COC(=O)c1ccc2c(c1)NC(=O)/C2=C(\Nc1ccc(N(C)C(=O)CN2CCN(C)CC2)cc1)c1ccccc1 [Nintedanib esylate]', 0.7218),
  ('COc1ccc2c(c1)c(CC(=O)O)c(C)n2C(=O)c1ccc(Cl)cc1 [Indomethacin (sodium hydrate)]', 0.9744),
  ('CC(=O)OC[C@H]1O[C@@H]([S-])[C@H](OC(C)=O)[C@@H](OC(C)=O)[C@@H]1OC(C)=O.CCP(CC)CC.[Au+] [Auranofin]', 0.01251),
  ('COc1ccccc1Oc1c(NS(=O)(=O)c2ccc(C(C)(C)C)cc2)nc(-c2ncccn2)nc1OCCO [Bosentan]', 1.122),
  ('CN(Cc1ccc(C(C)(C)C)cc1)Cc1cccc2ccccc12 [Butenafine (Hydrochloride)]', 1.078),
  ('O=C(O)/C=C/c1ccc(Cn2ccnc2)cc1 [Ozagrel (sodium)]', 1.082),
  ('COC(=O)Nc1nc2cc(C(=O)c3ccc(F)cc3)ccc2[nH]1 [Flubendazole]', 1.122),
  ('c1ccc2c(CC3=NCCN3)cccc2c1 [Naphazoline (hydrochloride)]', 0.7495),
  ('NC[C@H](O)c1ccc(O)c(O)c1 [Norepinephrine]', 0.9481),
  ('CCCN[C@H]1CCc2nc(N)sc2C1 [Pramipexole (dihydrochloride)]', 0.885),
  ('CCOC(=O)[C@H](CCc1ccccc1)N[C@@H](C)C(=O)N1[C@H](C(=O)O)C[C@@H]2CCC[C@@H]21 [Ramipril]', 1.055),
  ('CC(C)N(CCC(C(N)=O)(c1ccccc1)c1ccccn1)C(C)C (stereo not shown) [Disopyramide]', 1.301),
  ('CC(=O)N1C[C@H](O)C[C@H]1C(=O)O [Oxaceprol]', 0.8786),
  ('N#Cc1cc(-c2n[nH]c(-c3ccncc3)n2)ccn1 [Topiroxostat]', 1.544),
  ('CCC(=O)O[C@H](CC(=O)O)C[N+](C)(C)C [Levocarnitine propionate (hydrochloride)]', 1.106),
  ('CC(C)(C)C(=O)OCOP(=O)(COCCn1cnc2c(N)ncnc21)OCOC(=O)C(C)(C)C [Adefovir dipivoxil]', 0.2485),
  ('COc1cc(C=O)ccc1O [Vanillin]', 1.042),
  ('Cl.NCCC[C@H](N)C(=O)O [L-Ornithine (hydrochloride)]', 0.8763),
  ('CCCN(CCC)C(=O)C(CCC(=O)O)NC(=O)c1ccccc1 (stereo not shown) [Proglumide]', 0.8053),
  ('CC(=O)CCCCn1c(=O)c2c(ncn2C)n(C)c1=O [Pentoxifylline]', 0.9442),
  ('CC(COc1ccccc1)N(CCCl)Cc1ccccc1 (stereo not shown) [Phenoxybenzamine (hydrochloride)]', 0.9012);
